Reported p53-positive nuclei, normalised is given for each of the following compounds.
Biological target: Cellular tumor antigen p53 (Homo sapiens) (UniProt P04637)
Sequence (P04637 whole entry, looked up): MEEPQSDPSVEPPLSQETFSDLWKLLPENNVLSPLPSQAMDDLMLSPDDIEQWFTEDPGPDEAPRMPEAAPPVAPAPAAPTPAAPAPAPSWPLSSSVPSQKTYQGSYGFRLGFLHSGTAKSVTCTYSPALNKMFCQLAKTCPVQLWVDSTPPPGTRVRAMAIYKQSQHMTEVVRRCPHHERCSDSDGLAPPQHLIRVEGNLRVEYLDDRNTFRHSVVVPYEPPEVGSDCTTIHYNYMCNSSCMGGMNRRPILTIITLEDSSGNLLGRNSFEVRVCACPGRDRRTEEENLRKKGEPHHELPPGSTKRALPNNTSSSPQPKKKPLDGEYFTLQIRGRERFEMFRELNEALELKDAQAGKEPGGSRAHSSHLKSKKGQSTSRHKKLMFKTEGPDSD
Experiment: nuclear p53 accumulation, HPV+ cells – imaging, p53-positive nuclei imaging, 24 h, 48 h (AID 1508601)
Conditions: 24/48 h, measured here: p53 positive nuclei at 24 h, Library stock concentration: 278 uM, stronger effect = higher value
Out of some 5,700 compounds screened, about 85 (1%) were called active. The full list was thinned out, with actives kept by preference.
Answer with a number only, understood to be in %.

# example entries with known answers
Request the reported p53-positive nuclei, normalised associated with CN(CCC(Oc1ccc(-c2ccccc2)cc1)c1ccc(F)cc1)CC(=O)O (stereo unspecified)
-0.0916

Requested field: p53-positive nuclei, normalised. Item: Cc1nc(Nc2n[nH]c3c2CN(C(=O)NC(CN(C)C)c2ccccc2)C3(C)C)c2sccc2n1 (stereo unspecified)
-0.0682

Tell me the measured p53-positive nuclei, normalised of COC(=O)C(NC(=O)c1cc(-c2ccccc2)nc2ccccc12)c1ccccc1 (stereo unspecified) , please.
-0.0834

So what's the measured p53-positive nuclei, normalised for this one? CN1CCN(c2ccc(Nc3c4ccccc4nc4ccccc34)cc2)CC1
-0.137

I would be grateful if you could share the reported p53-positive nuclei, normalised for Cc1ccc(B(O)O)cc1 .
-0.148

Next:
Recorded p53-positive nuclei, normalised for CN1CCc2c(c3ccccc3n2Cc2ccc(C(=O)NO)cc2)C1 , please?
-0.207
